The reported measurements were obtained from ChEMBL document CHEMBL3352567.

- MEASUREMENT_NOTES: Plasma concentration in conscious Sprague-Dawley rat plasma assessed as radiotracer at < 10 nmol/kg, tail-vein injections at 2 mins
- Format: ADME
- CONDITION_CONTEXT: iv, read-out: Stability
QUANTITY_KIND: remaining at 2 min (%)
Note: unit % is implicit; provide only the numeric part.

input: // returns reported remaining at 2 min for input "COC[C@@H]1CN(c2noc3cc(OCCC[18F])ccc23)C(=O)O1"
output: 90
